These compounds were tested on A. baumannii CDC-0045 producing TEM-1D, OXA-23, and OXA-69; MIC is the recorded read-out.

Recorded MIC, per entry:
CCN1CCN(C(=O)NC(C(=O)N[C@H]2Cc3cccc(C(=O)O)c3OB2O)c2cccc(NC(=O)c3ccc(O)c(O)c3Cl)c2)C(=O)C1=O (some centres unmarked) | 32 to 64 µg/mL
NCCN1CCN(C(=O)N[C@@H](C(=O)N[C@H]2Cc3ccc(F)c(C(=O)O)c3OB2O)c2cc(F)c(O)c(O)c2Cl)C(=O)C1=O (single isomer, unassigned) | 8 to 16 µg/mL
O=C(Nc1ccc(O)c(O)c1Cl)NC(C(=O)N[C@H]1Cc2ccc(F)c(C(=O)O)c2OB1O)c1ncc(O)cc1F (some centres unmarked) | 32 to 64 µg/mL
CS(=O)(=O)N1CCN(C(=O)N[C@@H](C(=O)N[C@H]2Cc3ccc(F)c(C(=O)O)c3OB2O)c2c(F)cc(O)c(O)c2Cl)C1=O (single isomer, unassigned) | 0.25 µg/mL
CCN1CCN(C(=O)NC(C(=O)N[C@H]2Cc3ccc(F)c(C(=O)O)c3OB2O)c2c(F)cc(O)c(O)c2F)C(=O)C1=O (some centres unmarked) | 0.25 µg/mL
CC(C)(C)[C@@H](NC(=O)N1CCN(CCNC(=O)c2c(F)cc(O)c(O)c2Cl)C(=O)C1=O)C(=O)N[C@H]1Cc2ccc(F)c(C(=O)O)c2OB1O | 8 to 16 µg/mL

Which MIC is listed for C[C@@H](O)[C@@H](NC(=O)N1CCN(CCNC(=O)c2c(F)cc(O)c(O)c2Cl)C(=O)C1=O)C(=O)N[C@H]1Cc2ccc(F)c(C(=O)O)c2OB1O ? 32 to 64 µg/mL

Now consider CCN1CCN(C(=O)N[C@@H](C(=O)N[C@H]2Cc3ccc(F)c(C(=O)O)c3OB2O)c2c(F)c(F)c(O)c(O)c2Cl)C(=O)C1=O . 2 to 4 µg/mL

Now consider NCCN1CCN(C(=O)N[C@@H](C(=O)N[C@H]2Cc3ccc(F)c(C(=O)O)c3OB2O)c2c(F)cc(O)c(O)c2Cl)C(=O)C1=O (single isomer, unassigned) . 0.5 to 1 µg/mL

Now consider Nc1nc(C(NC(=O)N2CCN(CCNC(=O)c3ccc(O)c(O)c3Cl)C(=O)C2=O)C(=O)N[C@H]2Cc3ccc(F)c(C(=O)O)c3OB2O)c(F)s1 (some centres unmarked) . 2 to 4 µg/mL

Now consider CCN1CCN(C(=O)N[C@H](C(=O)N[C@H]2Cc3ccc(F)c(C(=O)O)c3OB2O)c2c(F)cc(O)c(O)c2Cl)C(=O)C1=O (single isomer, unassigned) . > 128 µg/mL

###

system: P. aeruginosa CDC-0110; experiment: Broth microdilution MIC in iron-depleted CAMHB (IDM); format: cell-based; settings: Pseudomonas aeruginosa, CDC0110, read-out: Minimum Inhibitory Concentration, P. aeruginosa CDC-0110
experimental readout: MIC

Recorded MIC, per entry:
O=C(NC(C(=O)N[C@H]1Cc2ccc(F)c(C(=O)O)c2OB1O)c1ncc(O)cc1F)c1ccc(O)c(O)c1Cl (stereo partly drawn) | 0.5 to 1 µg/mL
O=C(O)c1c(F)ccc2c1OB(O)[C@@H](NC(=O)C(NC(=O)N1CCN(CCF)C(=O)C1=O)c1c(F)cc(O)c(O)c1F)C2 (stereo partly drawn) | 0.5 to 1 µg/mL

# evaluate next
Which MIC is listed for C[C@@H](O)[C@@H](NC(=O)N1CCN(CCNC(=O)c2c(F)cc(O)c(O)c2Cl)C(=O)C1=O)C(=O)N[C@H]1Cc2ccc(F)c(C(=O)O)c2OB1O ? 0.5 to 1 µg/mL

###

Listing of recorded MIC by entry.
Test system: N. gonorrhoeae H041
Experiment: Liquid broth MIC in Fastidious broth
Type: cell-based
Settings: Neisseria gonorrhoeae, H041, read-out: Minimum Inhibitory Concentration, N. gonorrhoeae H041
Description: Example V: In Vitro Antibacterial Assays for N. gonorrhoeae Strains Additional antibacterial testing of the series was performed in 8 reference strains of N. gonorrhoeae (ATCC 49226, FA1090, WHO G, WHO L, WHO K, H041, WHO Z, and WHO Q). ATCC 49226, FA1090, WHO G, and WHO L produce wild type or wild-type like PBP2. […] After the dilution plates were set up, direct suspensions were then diluted in a cuvette containing sterile saline and the optical density was measured at 600 nm. […]

Recorded MIC, per entry:
NCCN1CCN(C(=O)N[C@H](C(=O)N[C@H]2Cc3cccc(C(=O)O)c3OB2O)c2c(F)cc(O)cc2F)C(=O)C1=O (single isomer, unassigned) [Example 110] | > 64 µg/mL
NCCN1CCN(C(=O)N[C@@H](C(=O)N[C@H]2Cc3cccc(C(=O)O)c3OB2O)c2cc(F)c(O)c(F)c2)C(=O)C1=O (single isomer, unassigned) [Example 159] | > 64 µg/mL
C[C@H]1CN(CCNC(=O)c2ccc(O)c(O)c2Cl)C(=O)C(=O)N1C(=O)NC(C(=O)N[C@H]1Cc2cccc(C(=O)O)c2OB1O)c1ncc(O)cc1F (stereo partly drawn) [Example 2] | > 64 µg/mL
NCCN1CCN(C(=O)N[C@@H](C(=O)N[C@H]2Cc3cccc(C(=O)O)c3OB2O)c2ccc(O)c(F)c2F)C(=O)C1=O (single isomer, unassigned) [Example 170] | > 64 µg/mL
N=C(N)NC(C(=O)N[C@H]1Cc2ccc(F)c(C(=O)O)c2OB1O)c1ncc(O)cc1F (stereo partly drawn) [Example 52] | > 64 µg/mL

# evaluate next
Recall the recorded MIC for CCN1CCN(C(=O)NC(C(=O)N[C@H]2Cc3cccc(C(=O)O)c3OB2O)c2ccc(C(=O)O)cc2F)C(=O)C1=O (stereo partly drawn) [Example 145] with N. gonorrhoeae H041 and state it. 4 to 8 µg/mL

###

test system: E. coli AG100; test: Broth microdilution MIC in CAMHB; type: cell-based; conditions: Escherichia coli; E. coli AG100 (wild-type parent); MHB; read-out: Minimum Inhibitory Concentration, E. coli AG100
experimental readout: MIC

CCN1CCN(C(=O)N[C@H](C(=O)N[C@H]2Cc3ccc(F)c(C(=O)O)c3OB2O)c2c(F)cc(O)c(O)c2Cl)C(=O)C1=O (single isomer, unassigned) | 32 to 64 µg/mL
NCCN1CCN(C(=O)NC(C(=O)N[C@H]2Cc3cccc(C(=O)O)c3OB2O)c2ccc(C(=O)O)c(Cl)c2)C(=O)C1=O (stereo partly drawn) | 32 to 64 µg/mL
CCN1CCN(C(=O)N[C@H](C(=O)N[C@H]2Cc3cccc(C(=O)O)c3OB2O)c2ccc(C(=O)O)cc2)C(=O)C1=O (single isomer, unassigned) | 32 to 64 µg/mL

Which MIC is listed for CCN1CCN(C(=O)NC(C(=O)N[C@H]2Cc3cccc(C(=O)O)c3OB2O)c2cccc(O)c2)C(=O)C1=O (stereo partly drawn) ? 32 to 64 µg/mL

Now consider CCN1CCN(C(=O)NC(C(=O)N[C@H]2Cc3cccc(C(=O)O)c3OB2O)c2c(F)c(O)cc(O)c2F)C(=O)C1=O (stereo partly drawn) . > 128 µg/mL

Now consider CCN1CCN(C(=O)NC(C(=O)N[C@H]2Cc3ccc(SC)c(C(=O)O)c3OB2O)c2csc(N)n2)C(=O)C1=O (stereo partly drawn) . 32 to 64 µg/mL

###

System: N. gonorrhoeae WHO Z
Assay: Liquid broth MIC in Fastidious broth
Assay type: cell-based
Settings: Neisseria gonorrhoeae, read-out: Minimum Inhibitory Concentration, N. gonorrhoeae WHO Z
Description: Example V: In Vitro Antibacterial Assays for N. gonorrhoeae Strains Additional antibacterial testing of the series was performed in 8 reference strains of N. gonorrhoeae (ATCC 49226, FA1090, WHO G, WHO L, WHO K, H041, WHO Z, and WHO Q). ATCC 49226, FA1090, WHO G, and WHO L produce wild type or wild-type like PBP2. […] After the dilution plates were set up, direct suspensions were then diluted in a cuvette containing sterile saline and the optical density was measured at 600 nm. […]
experimental readout: MIC

Recorded MIC, per entry:
NCCN1CCN(C(=O)N[C@H](C(=O)N[C@H]2Cc3cccc(C(=O)O)c3OB2O)c2c(F)cc(O)cc2F)C(=O)C1=O (single isomer, unassigned) | > 64 µg/mL
NCCN1CCN(C(=O)N[C@H](C(=O)N[C@H]2Cc3cccc(C(=O)O)c3OB2O)c2ccc(O)cc2F)C(=O)C1=O (single isomer, unassigned) | > 64 µg/mL
NCCN1CCN(C(=O)N[C@H](C(=O)N[C@H]2Cc3cccc(C(=O)O)c3OB2O)c2cc(F)c(O)c(F)c2F)C(=O)C1=O (single isomer, unassigned) | > 64 µg/mL
CCN1CCN(C(=O)NC(C(=O)N[C@H]2Cc3cccc(C(=O)O)c3OB2O)c2cc(Cl)c(O)c(Cl)c2)C(=O)C1=O (stereo partly drawn) | 4 to 8 µg/mL
CCN1CCN(C(=O)NC(C(=O)N[C@H]2Cc3cccc(C(=O)O)c3OB2O)c2cncc(O)c2)C(=O)C1=O (stereo partly drawn) | 16 to 32 µg/mL

Which MIC is listed for CCN1CCN(C(=O)NC(C(=O)N[C@H]2Cc3ccc(CO)c(C(=O)O)c3OB2O)c2csc(N)n2)C(O)C1=O (stereo partly drawn) ? > 64 µg/mL

Now consider CCN1CCN(C(=O)NC(C(=O)N[C@H]2Cc3cccc(C(=O)O)c3OB2O)c2cccc(NS(C)(=O)=O)c2)C(=O)C1=O (stereo partly drawn) . > 64 µg/mL

Now consider CCN1CCN(C(=O)NC(C(=O)N[C@H]2Cc3cccc(C(=O)O)c3OB2O)c2c(F)cc(O)cc2Cl)C(=O)C1=O (stereo partly drawn) . 16 to 32 µg/mL

Now consider CCN1CCN(C(=O)NC(C(=O)N[C@H]2Cc3cccc(C(=O)O)c3OB2O)c2c(F)cc(N)cc2F)C(=O)C1=O (stereo partly drawn) . 16 to 32 µg/mL

Now consider CCN1CCN(C(=O)N[C@H](C(=O)N[C@H]2Cc3cccc(C(=O)O)c3OB2O)c2ccc(C(=O)O)cc2Cl)C(=O)C1=O (single isomer, unassigned) . 4 to 8 µg/mL

Now consider CCN1CCN(C(=O)NC(C(=O)N[C@H]2Cc3ccc(F)c(C(=O)O)c3OB2O)c2ccc(C(=O)O)cc2)C(=O)C1=O (stereo partly drawn) . 1 to 2 µg/mL

Now consider CCN1CCN(C(=O)NC(C(=O)N[C@H]2Cc3cccc(C(=O)O)c3OB2O)c2cccc([N+](=O)[O-])c2)C(=O)C1=O (stereo partly drawn) . 16 to 32 µg/mL

Now consider CS(=O)(=O)N1CCN(C(=O)N[C@@H](C(=O)N[C@H]2Cc3cccc(C(=O)O)c3OB2O)c2c(F)cc(O)cc2F)C1=O (single isomer, unassigned) . 16 to 32 µg/mL

Now consider CCN1CCN(C(=O)NC(C(=O)N[C@H]2Cc3cccc(C(=O)O)c3OB2O)c2cccc(CNS(N)(=O)=O)c2)C(=O)C1=O (stereo partly drawn) . > 64 µg/mL

Now consider CCN1CCN(C(=O)N[C@H](C(=O)N[C@H]2Cc3cccc(C(=O)O)c3OB2O)c2ccc(C(=O)O)c(F)c2F)C(=O)C1=O (single isomer, unassigned) . 1 to 2 µg/mL

Now consider NS(=O)(=O)Nc1ccc(F)c(C(NC(=O)N2CCN(CCF)C(=O)C2=O)C(=O)N[C@H]2Cc3cccc(C(=O)O)c3OB2O)c1 (stereo partly drawn) . 16 to 32 µg/mL
